Values were extracted from the supplement of paper PMC9732359.

protocol-details: protein stability index of a GFP-peptide fusion (yeast GPS) (PSI 1-4); higher = more stable; sorted into four equal gates, so the index is relative within each strain
test-settings: pdr5∆
Overview of recorded protein stability index for various sequences
Could you keep your reply to the number by itself?

* LTIVTCKQFPKLSCIQL [SRB8] | 1.86
* RNSTRSSGFNEDIVGAL [REC8] | 3.58
* KVFDCGDNIVMSANGFA [PRE7] | 2.92
* PLNVLQDQYKEGIKVVD [SNF2] | 2.46
* FKGALTIKILPENTAMF [YMR129W/POM152] | 2.14
* TEDVRLAPELNQAIWKR [RPL31B] | 2.99

# input for lookup
IN: Return reported protein stability index. Input sequence: ELVKAHLGERAASVIGM [RPC82]
OUT: 2.77

* * *

protocol-details: protein stability index of a GFP-peptide fusion (yeast GPS) (PSI 1-4); higher = more stable; sorted into four equal gates, so the index is relative within each strain
test-settings: ubr1∆
Each entry below carries its recorded protein stability index.

Please review the entries below; each comes with its answer.
* QDVLQMLGRAGRPRYDT [BRR2] | 2.81
* INGINWRFHTPQKYVLH [SIN4] | 1.97
* DPELLRSYIFGGHVSQY [RPL5] | 3.17
* NLNDKFGIYILTQGING [MED1] | 1.43
* EGAEPGPPYTTDEHLIF [ISW2] | 2.68

IN: Give the reported protein stability index for this sequence. TSVQEKELMLQSKKLIE [YIL149C/MLP2]
OUT: 2.91

IN: Give the value of protein stability index reported for the following: PIFSFGKQEENGDEGDD [YOR098C/NUP1]
OUT: 3.32

IN: Identify protein stability index associated with the sequence VQGMNDDIFIRYLTLLS [ECM29]
OUT: 1.15

IN: Give a short answer stating reported protein stability index for SLFHIVVDTEETATLIM [SMC3] .
OUT: 2.23

IN: Recall and state the measured protein stability index for DSIPYPQIVKLFDISRE [ECM29] .
OUT: 2.08

IN: Supply reported protein stability index belonging to this sequence: TETLTSKKIVPSPKKVA [SIR4]
OUT: 2.55

IN: Quickly give me recorded protein stability index for TGKITKMFQDIRLSKIL [CDC53]
OUT: 2.86

IN: Quickly give me recorded protein stability index for YPNEVLKFNHGNYSHLM [REC8]
OUT: 2.88

IN: Look up and state reported protein stability index for DARGVIGVIAGGGRVDK [RPL2A]
OUT: 2.86

IN: Give reported protein stability index value for ALSGNEGDASPFTDITV [RPB2]
OUT: 3.1

IN: Tell me protein stability index reported for PISKHSKQAIYTRAAAS [RPS25B]
OUT: 2.83

IN: For the sequence DLPETGFFENIETEFLL [IRR1] , give its reported protein stability index.
OUT: 3.13

IN: Note down protein stability index recorded for LEDDSLLSYPIKLDRWL [RPN12]
OUT: 2.78

IN: Recall and state the measured protein stability index for LLPLVVSNISCLTGTVA [ECM29] .
OUT: 1.45

IN: Give the value of protein stability index reported for the following: PNIRELGVKNLGLCCLL [YCG1]
OUT: 1.46

* * *

protocol-details: protein stability index of a GFP-peptide fusion (yeast GPS) (PSI 1-4); higher = more stable; sorted into four equal gates, so the index is relative within each strain
test-settings: pdr5∆
attribute-measured: protein stability index
Respond using a number only.

• KSSPISNEAAKPSFSFP [YOR098C/NUP1] = 2.93
• HGLILELQKIWQIEEAG [SRB5] = 2.93
• SHPEKRMIPPRMVRSIM [SSN3] = 3.01

IN: Give the measured protein stability index for QNKLFYITNADDSTKFQ [SIR3]
OUT: 3.02

IN: Provide measured protein stability index value, entry: DQTFPINCNKETIENVK [ECM29]
OUT: 2.93

IN: Respond only with protein stability index recorded for ISGYKKFSSTSRYMQYN [RPT1]
OUT: 1.59

IN: # return recorded protein stability index for entry TRSHEYGRKSFRNNKND [REC8]
OUT: 3.16

IN: Annotate the sequence LQIESVTKETVHPRKSY [PRP8] with its measured protein stability index.
OUT: 3.02

IN: Provide one value: measured protein stability index of MIISGSRDKTIKVWTIK [ASC1]
OUT: 2.71

IN: State its protein stability index: EVDYEDKDNPVDSRNET [SRB4]
OUT: 2.99

IN: Respond only with protein stability index recorded for QHGFEVQVGPMKVFVTK [RPB7]
OUT: 2.41

IN: Give the measured protein stability index for SKNMSKSPSLTAQKYPI [YMR153W/NUP53]
OUT: 2.46
